experiment_summary: Pharmacokinetic studies in the mouse (i.v. clearance, plasma levels)
Format: in vivo
protocol_conditions: mouse, plasma, iv; male CD-1 mice, i.v. tail vein, 25 mg/kg; read-out: mean plasma level at 2 minutes
measured_metric: concentration at 2 min

| compound | concentration at 2 min |
| --- | --- |
| O=C(O)C[C@H](NC(=O)[C@@H]1CCCN2C(=O)CC[C@H](NC(=O)c3ccccc3)C(=O)N12)C(=O)COC(=O)c1c(Cl)cccc1Cl [Compound 217e] | ~55 µg/mL |

Consider now this further compound.
// O=C[C@H](CC(=O)O)NC(=O)[C@@H]1CCCN2C(=O)CC[C@H](NC(=O)c3ccccc3)C(=O)N12 [Compound 214e] : concentration at 2 min value = 70 µg/mL
